# target: Heat shock factor 1 (HSF1) (Homo sapiens, UniProt Q00613)
# Sequence (Q00613 15-120 limits assumed): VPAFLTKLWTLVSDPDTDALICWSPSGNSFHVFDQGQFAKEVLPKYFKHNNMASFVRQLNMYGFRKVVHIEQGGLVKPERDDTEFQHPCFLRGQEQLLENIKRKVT
reported.property: pKd
In simple prose, pKd is minus the logarithm base ten of a concentration in moles per litre.

Recall the reported pKd of O=C(Nc1ccc(F)cc1)Nc1ccc(Cl)c([N+](=O)[O-])c1 when tested on Heat shock factor 1 (HSF1) (Homo sapiens, UniProt Q00613).
6.80

Sourced from paper PMC10571035
